From: ChEMBL document CHEMBL1137624

Test System: Melanocortin receptor 4 (Homo sapiens, UniProt P32245)
Sequence (P32245 whole entry): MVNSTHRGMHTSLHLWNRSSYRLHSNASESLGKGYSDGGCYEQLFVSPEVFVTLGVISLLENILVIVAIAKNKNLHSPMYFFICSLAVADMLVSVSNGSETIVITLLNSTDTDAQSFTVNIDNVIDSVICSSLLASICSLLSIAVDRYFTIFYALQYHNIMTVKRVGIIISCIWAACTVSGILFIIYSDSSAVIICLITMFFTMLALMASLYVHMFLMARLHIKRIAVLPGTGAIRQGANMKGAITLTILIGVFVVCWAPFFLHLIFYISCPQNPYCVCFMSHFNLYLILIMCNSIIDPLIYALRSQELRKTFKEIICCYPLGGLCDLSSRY
Experimental Protocol: Intrinsic activity at human MC4 receptor expressed in CHO cells assessed as cAMP accumulation relative to alpha-MSH
Format: functional, cell-based
In plain terms, low Intrinsic activity, meaning strictly below 50%, gives Fulfilled, and everything else gives Not fulfilled.

Query: Decide: Intrinsic activity of "COc1ccc([C@@H]2CN(C(C)C)C[C@H]2C(=O)N2CCN(c3ccc(C(F)(F)F)cc3[C@@H](N)CC(C)C)CC2)cc1" strictly below 50%?
Response: Not fulfilled

Query: Decide: Intrinsic activity of "CC(C)[C@H](N)c1cccc(F)c1N1CCN(C(=O)[C@@H]2CN(C(C)C)C[C@H]2c2ccc(Cl)cc2)CC1" strictly below 50%?
Response: Not fulfilled
